Data origin, for the record: patent US20200317776A1

- MEASUREMENT_TARGET: T1, human TREM2 expressed on cells (human, UniProt Q9NZC2 19-230)
- T1 construct: BW5147.G.1.4 cells stably expressing human TREM2 together with Dap12, or endogenous TREM2 of primary human myeloid cells; also called huT2 BW; hTREM2 expressing cell line
- T1 sequence: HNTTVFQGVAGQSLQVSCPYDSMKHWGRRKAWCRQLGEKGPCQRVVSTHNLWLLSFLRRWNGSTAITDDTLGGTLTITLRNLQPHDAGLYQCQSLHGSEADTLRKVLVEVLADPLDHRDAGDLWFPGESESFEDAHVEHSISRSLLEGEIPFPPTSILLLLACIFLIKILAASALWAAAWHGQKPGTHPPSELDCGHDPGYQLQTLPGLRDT
- EXPERIMENT_NOTES: FACS, hTREM2 BW cells
- Description: To examine cell binding of affinity matured anti-TREM2 antibodies, both primary human monocyte derived dendritic cells and recombinant, human TREM2 expressing cells were utilized. […] Cells were harvested by trypsinization (Hek293T) or scraping (BW and dendritic cells), washed in PBS, counted and plated on 96-well U bottom plates at […] cells/well. […] Cells were again washed thrice with FACS buffer and analyzed on a BD FACS Canto or an Intellicyt Flow Cytometer. […]
A collection of binders and their measured Kd

1) AL2p-41 (antibody, IgG1, V domains shown, Fab and IgG formats under one id) VH: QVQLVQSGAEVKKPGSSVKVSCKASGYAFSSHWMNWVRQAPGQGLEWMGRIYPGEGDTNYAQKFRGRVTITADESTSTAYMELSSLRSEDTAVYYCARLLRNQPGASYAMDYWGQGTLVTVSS VL: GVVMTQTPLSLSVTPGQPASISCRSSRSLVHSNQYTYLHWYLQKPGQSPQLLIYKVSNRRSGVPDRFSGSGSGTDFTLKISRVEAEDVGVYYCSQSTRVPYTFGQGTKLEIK	1.31 nM
2) AL2p-24 (antibody, V domains shown, Fab and IgG formats under one id) VH: QVQLVQSGAEVKKPGSSVKVSCKASGYAFSSHWMNWVRQAPGQGLEWMGRIYPGGGDTNYAQKFQGRVTITADESTSTAYMELSSLRSEDTAVYYCARLLRNQPGESYAMDYWGQGTLVTVSS VL: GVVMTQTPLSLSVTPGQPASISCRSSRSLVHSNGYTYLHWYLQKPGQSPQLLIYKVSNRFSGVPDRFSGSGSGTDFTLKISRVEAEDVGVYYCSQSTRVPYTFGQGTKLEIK	1.7 nM
3) AL2p-12 (antibody, V domains shown, Fab and IgG formats under one id) VH: QVQLVQSGAEVKKPGSSVKVSCKASGYAFSSHWMNWVRQAPGQGLEWMGRIYPGDGDTNYAHKFQGRVTITADESTSTAYMELSSLRSEDTAVYYCARLLRNQPGESYAMDYWGQGTLVTVSS VL: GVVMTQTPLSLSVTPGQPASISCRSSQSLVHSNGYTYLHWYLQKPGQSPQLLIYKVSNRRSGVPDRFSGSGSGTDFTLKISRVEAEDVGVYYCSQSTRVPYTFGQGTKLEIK	1.8 nM
4) AL2p-38 (antibody, V domains shown, Fab and IgG formats under one id) VH: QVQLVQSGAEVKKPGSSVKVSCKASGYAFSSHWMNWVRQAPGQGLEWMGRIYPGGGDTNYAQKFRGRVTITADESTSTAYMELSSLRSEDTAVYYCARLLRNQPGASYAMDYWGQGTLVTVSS VL: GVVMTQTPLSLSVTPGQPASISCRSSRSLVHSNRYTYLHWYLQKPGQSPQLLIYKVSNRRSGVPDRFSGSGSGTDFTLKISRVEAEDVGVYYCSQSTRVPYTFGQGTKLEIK	4.79 nM

Here is another binder to look at.
Enquiry: For the binder AL2p-16 (antibody, V domains shown, Fab and IgG formats under one id) VH: QVQLVQSGAEVKKPGSSVKVSCKASGYAFSSHWMNWVRQAPGQGLEWMGRIYPGDGDTNYAQKFRGRVTITADESTSTAYMELSSLRSEDTAVYYCARLLRNQPGASYAMDYWGQGTLVTVSS VL: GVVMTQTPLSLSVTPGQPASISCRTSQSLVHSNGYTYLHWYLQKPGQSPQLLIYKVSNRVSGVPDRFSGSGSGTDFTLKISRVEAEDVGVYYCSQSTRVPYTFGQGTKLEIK , report Kd.
Return: 1.2 nM
